Tested on: VDR homodimer (NR concentration 270 nM)
Assay: PBM binding z-score (relative to random genomic background probes); higher = stronger binding; sequences stand for … in GC…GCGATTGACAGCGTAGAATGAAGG
Where PBM binding z-score equals or exceeds 0.9, the correct label is true; where it does not, the label is false.

ORDERED RESIDUES	ANSWER LABEL
AGAAAGAGGTTAAGATCAGGGAAACAGAATACAT	false

Exercise: Does the sequence ACTAGCAGGCCCAGGGTCACTCAAGATTAGTCCG have recorded PBM binding z-score that is 0.9 or more?
Solution: true

Exercise: Does the sequence TAGCCTAGGTTATTCAGGGGCCAGTATAGAAAGC have recorded PBM binding z-score that is 0.9 or more?
Solution: false

Exercise: Does the sequence CTGGAAAGGTCGTGCTCAGGTGAGTATACCAAAC have recorded PBM binding z-score that is 0.9 or more?
Solution: false

Exercise: Does the sequence CCTACTGGGGCATTCAGAGGTCATTGATCATATG have recorded PBM binding z-score that is 0.9 or more?
Solution: true

Exercise: Does the sequence AGATGTAGGTTAAGGGTCATTCAGGTTGGTTCGC have recorded PBM binding z-score that is 0.9 or more?
Solution: true

Exercise: Does the sequence CCTAGCAGGCGAATCTGGGTCACTCAAGGCTTGA have recorded PBM binding z-score that is 0.9 or more?
Solution: false

Exercise: Does the sequence AGTCAAAGTTCATCTCGGTAACGTAAGATATGCT have recorded PBM binding z-score that is 0.9 or more?
Solution: true

Exercise: Does the sequence TAGCCGAGGTCATGGGCCAGTATACCACGCGAAC have recorded PBM binding z-score that is 0.9 or more?
Solution: true

Exercise: Does the sequence TGTCAAAGTTCAAAGGTAACGTAAGTATCCACAC have recorded PBM binding z-score that is 0.9 or more?
Solution: true

Exercise: Does the sequence CCTTACGGGTCACTCCAGGTTATAGCGTCGGAGT have recorded PBM binding z-score that is 0.9 or more?
Solution: true
